The measured values listed here are drawn from PubChem BioAssay.

Exercise: for every item that follows, state its recorded composite z-score.
- TEST_DESCRIPTION: probe aLAP1 signal on lysate-treated microarray – cell lysate, small-molecule microarray, COS7 lysate, primary screen (AID 1124);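 also: lysate comes from COS7 cells expressing LAP1 and is applied at 0.3 µg/mL; score merges spot fluorescence near 667 nm with signal-to-noise over triplicate slides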
- PARTICULARS: probe aLAP1, fluorescence, higher = more signal
Form: value (number only, do not type unit).

Input: Please give measured composite z-score of the following entry: `CO[C@H]1O[C@H](CO)[C@@H](OC(=O)Nc2ccc(Br)cc2)[C@@H]2OC(=O)[C@H](Cc3cccc(Br)c3)C/C=C/C[C@@H](Cc3cccc(Br)c3)C(=O)O[C@@H]12`
Output: -0.0838

Input: Please give measured composite z-score of the following entry: `CC(C)NC(=O)[C@@]1(Cc2ccccc2I)c2ccccc2C(=O)N(Cc2ccccc2Cl)[C@H]1c1ccc(CO)cc1`
Output: -0.0064

Input: Please give measured composite z-score of the following entry: C[C@H]1C2[C@H](Cc3ccccc3)NC(=O)[C@]23C(=O)NCC(=O)N2CCC[C@H]2C(=O)NC/C=C/CCC/C=C/C3[C@@H]2O[C@]12C (some centres not stated)
Output: 0.053

Input: Please give measured composite z-score of the following entry: `O=C(NC1CC1)[C@@H]1c2ccccc2C(=O)N(C2Cc3ccccc3C2)[C@H]1c1ccc(CO)cc1`
Output: 0.237

Input: Please give measured composite z-score of the following entry: `COC(=O)[C@@]1(Cc2ccc(F)cc2)[C@H]2c3cc(C(=O)N(C)C)n(Cc4cc(C)n(C)n4)c3C[C@H]2CN1C(=O)c1ccccc1`
Output: 0.738

Input: Please give measured composite z-score of the following entry: `Cc1ccc(/C=C/C=O)cc1`
Output: 0.127

Input: Please give measured composite z-score of the following entry: O=C1C2C=CC(C(O)C=Cc3ccc([N+](=O)[O-])cc3)N(Nc3ccccc3F)C2C(=O)N1c1ccccc1 (configuration not stated)
Output: 0.885
